Where do the numbers come from? From paper PMC9797722.

- experiment_description: Plasma pharmacokinetics of esomeprazole and esomeprazole sulfone in goats after IV and SC administration (HPLC, non-compartmental analysis)
- applied_conditions: both, pygmy and pygmy-cross, plasma, iv, 1 mg/kg, Vz (volume of distribution), goats, 1 mg/kg IV single dose, median, n = 5
result_type: Vd (L/kg)

[[record]]
compound = "COc1ccc2nc([S@@+]([O-])Cc3ncc(C)c(OC)c3C)[nH]c2c1 [Esomeprazole, esomeprazole]"
result_type = "Vd"
measured_number = 0.19


###

- experiment_description: Plasma pharmacokinetics of esomeprazole and esomeprazole sulfone in goats after IV and SC administration (HPLC, non-compartmental analysis)
- applied_conditions: both, pygmy and pygmy-cross, plasma, iv, 1 mg/kg, clearance, goats, 1 mg/kg IV, not normalised to body weight
result_type: clearance (mL/min)

[[record]]
compound = "COc1ccc2nc([S@@+]([O-])Cc3ncc(C)c(OC)c3C)[nH]c2c1 [Esomeprazole, esomeprazole]"
result_type = "clearance"
measured_number = 1050


###

- experiment_description: Plasma pharmacokinetics of esomeprazole and esomeprazole sulfone in goats after IV and SC administration (HPLC, non-compartmental analysis)
- applied_conditions: both, pygmy and pygmy-cross, plasma, sc, 2 mg/kg, T1/2 (λz), Goat, 2 mg/kg SQ
result_type: half-life (min)

[[record]]
smiles_entry = "COc1ccc2nc([S@@+]([O-])Cc3ncc(C)c(OC)c3C)[nH]c2c1"
result_type = "half-life"
readout_unit = "min"
measured_number = 29.4


###

- experiment_description: Plasma pharmacokinetics of esomeprazole and esomeprazole sulfone in goats after IV and SC administration (HPLC, non-compartmental analysis)
- applied_conditions: both, pygmy and pygmy-cross, plasma, sc, 2 mg/kg
result_type: AUC(0-inf) (ng·h/mL)

[[record]]
molecule = "COc1ccc2nc([S@@+]([O-])Cc3ncc(C)c(OC)c3C)[nH]c2c1 [Esomeprazole, esomeprazole]"
result_type = "AUC(0-inf)"
measured_number = 1030


###

- experiment_description: Plasma pharmacokinetics of esomeprazole and esomeprazole sulfone in goats after IV and SC administration (HPLC, non-compartmental analysis)
- applied_conditions: goats, 2 mg/kg SC (SQ) single dose, plasma, median, n = 5
result_type: AUMCinf

[[record]]
smiles_entry = "COc1ccc2nc([S@@+]([O-])Cc3ncc(C)c(OC)c3C)[nH]c2c1"
result = "3780 min²·µg/mL"


###

- experiment_description: Plasma pharmacokinetics of esomeprazole and esomeprazole sulfone in goats after IV and SC administration (HPLC, non-compartmental analysis)
- applied_conditions: goats, 2 mg/kg SC (SQ) single dose, plasma, median, n = 5
result_type: AUCinf (ng·h/mL)

[[record]]
smiles_entry = "COc1ccc2nc([S@@+]([O-])Cc3ncc(C)c(OC)c3C)[nH]c2c1"
measured_number = 979


###

- experiment_description: Plasma pharmacokinetics of esomeprazole and esomeprazole sulfone in goats after IV and SC administration (HPLC, non-compartmental analysis)
- applied_conditions: both, pygmy and pygmy-cross, plasma, iv, 1 mg/kg, C0, goats, 1 mg/kg IV single dose, median, n = 5
result_type: C0 (ng/mL)

[[record]]
smiles_entry = "COc1ccc2nc([S@@+]([O-])Cc3ncc(C)c(OC)c3C)[nH]c2c1"
readout_unit = "ng/mL"
measured_number = 2880


###

- experiment_description: Plasma pharmacokinetics of esomeprazole and esomeprazole sulfone in goats after IV and SC administration (HPLC, non-compartmental analysis)
- applied_conditions: both, pygmy and pygmy-cross, plasma, iv, 1 mg/kg, C0/Cmax, Goat, 1 mg/kg IV (Table 3 comparison)
result_type: Cmax (ng/mL)

[[record]]
smiles_entry = "COc1ccc2nc([S@@+]([O-])Cc3ncc(C)c(OC)c3C)[nH]c2c1"
measured_number = 2320


###

- experiment_description: Plasma pharmacokinetics of esomeprazole and esomeprazole sulfone in goats after IV and SC administration (HPLC, non-compartmental analysis)
- applied_conditions: both, pygmy and pygmy-cross, plasma, sc, 2 mg/kg, Vz/F, goats, 2 mg/kg SC (SQ) single dose, geomean, n = 5
result_type: Vd/F

[[record]]
molecule = "COc1ccc2nc([S@@+]([O-])Cc3ncc(C)c(OC)c3C)[nH]c2c1 [Esomeprazole, esomeprazole]"
result = "0.9 L/kg"


###

- experiment_description: Plasma pharmacokinetics of esomeprazole and esomeprazole sulfone in goats after IV and SC administration (HPLC, non-compartmental analysis)
- applied_conditions: goats, 1 mg/kg IV single dose, plasma, median, n = 5
result_type: AUCinf (ng·h/mL)

[[record]]
smiles_entry = "COc1ccc2nc([S@@+]([O-])Cc3ncc(C)c(OC)c3C)[nH]c2c1"
readout_unit = "ng·h/mL"
measured_number = 397


###

- experiment_description: Plasma pharmacokinetics of esomeprazole and esomeprazole sulfone in goats after IV and SC administration (HPLC, non-compartmental analysis)
- applied_conditions: goats, 1 mg/kg IV single dose, plasma, geomean, n = 5
result_type: AUClast (ng·h/mL)

[[record]]
compound = "COc1ccc2nc([S@@+]([O-])Cc3ncc(C)c(OC)c3C)[nH]c2c1 [Esomeprazole, esomeprazole]"
readout_unit = "ng·h/mL"
measured_number = 439


###

- experiment_description: Plasma pharmacokinetics of esomeprazole and esomeprazole sulfone in goats after IV and SC administration (HPLC, non-compartmental analysis)
- applied_conditions: both, pygmy and pygmy-cross, plasma, sc, 2 mg/kg, λz, goats, 2 mg/kg SC (SQ) single dose, median, n = 5
result_type: k el (s⁻¹)

[[record]]
smiles_entry = "COc1ccc2nc([S@@+]([O-])Cc3ncc(C)c(OC)c3C)[nH]c2c1"
measured_number = 0.000433


###

- experiment_description: Plasma pharmacokinetics of esomeprazole and esomeprazole sulfone in goats after IV and SC administration (HPLC, non-compartmental analysis)
- applied_conditions: both, pygmy and pygmy-cross, plasma, sc, 2 mg/kg, Cmax, goats, 2 mg/kg SC (SQ) single dose, median, n = 5
result_type: Cmax (ng/mL)

[[record]]
smiles_entry = "COc1ccc2nc([S@@+]([O-])Cc3ncc(C)c(OC)c3C)[nH]c2c1"
result_type = "Cmax"
readout_unit = "ng/mL"
measured_number = 1060

